Target: Progesterone receptor (Oryctolagus cuniculus) (UniProt P06186)
Sequence (P06186 whole entry): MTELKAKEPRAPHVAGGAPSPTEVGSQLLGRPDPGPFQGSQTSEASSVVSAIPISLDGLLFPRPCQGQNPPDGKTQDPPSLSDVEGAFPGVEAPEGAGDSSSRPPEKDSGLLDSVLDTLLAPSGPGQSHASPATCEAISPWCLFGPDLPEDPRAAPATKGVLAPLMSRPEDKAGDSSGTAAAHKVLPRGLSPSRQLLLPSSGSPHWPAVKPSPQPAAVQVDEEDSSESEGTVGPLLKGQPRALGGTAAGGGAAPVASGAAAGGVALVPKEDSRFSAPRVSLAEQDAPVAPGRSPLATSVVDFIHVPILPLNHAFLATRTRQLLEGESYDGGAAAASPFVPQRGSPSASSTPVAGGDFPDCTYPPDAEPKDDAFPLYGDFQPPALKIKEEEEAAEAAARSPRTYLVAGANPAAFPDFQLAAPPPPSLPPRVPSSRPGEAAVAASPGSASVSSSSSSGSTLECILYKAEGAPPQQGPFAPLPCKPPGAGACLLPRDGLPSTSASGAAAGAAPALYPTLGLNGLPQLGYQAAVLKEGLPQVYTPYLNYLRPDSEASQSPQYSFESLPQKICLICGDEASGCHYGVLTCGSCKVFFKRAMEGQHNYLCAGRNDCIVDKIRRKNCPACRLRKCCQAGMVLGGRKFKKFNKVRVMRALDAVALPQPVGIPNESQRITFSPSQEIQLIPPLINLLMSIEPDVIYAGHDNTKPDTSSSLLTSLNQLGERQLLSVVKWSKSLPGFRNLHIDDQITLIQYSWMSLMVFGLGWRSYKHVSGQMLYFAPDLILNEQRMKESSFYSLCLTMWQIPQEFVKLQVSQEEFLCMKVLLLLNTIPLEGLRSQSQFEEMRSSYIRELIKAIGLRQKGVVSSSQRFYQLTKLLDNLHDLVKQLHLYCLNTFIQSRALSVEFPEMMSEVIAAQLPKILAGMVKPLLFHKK
Assay: Percent inhibition of [3H]- progesterone binding to rabbit uterine progesterone receptor, at 10e-8 M compound concentration
Details: at 0.01 µM
The entries below are paired with their reported inhibition.

molecule: COC(=O)C1=C(C)N=C(C)/C(=C(/O)OC)C1c1ccc2[nH]c(S)nc2c1 (centres undefined)
unit info: %
inhibition: 10

molecule: COC(=O)C1=C(C)N=C(C)/C(=C(/O)OC)C1c1ccc2nc3n(c2c1)C(=O)c1ccccc1-3 (centres undefined)
unit info: %
inhibition: 0

molecule: COC(=O)C1=C(C)N=C(C)/C(=C(/O)OC)C1c1cc2ccccc2nc1Cl (centres undefined)
unit info: %
inhibition: 11

molecule: COC(=O)C1=C(C)N=C(C)/C(=C(/O)OC)C1c1ccc(N)c(N)c1 (centres undefined)
unit info: %
inhibition: 10

###

Test system: Progesterone receptor (Mesocricetus auratus)
Assay: Percent inhibition of [3H]- progesterone binding to Syrian golden hamster uterine cytosol progesterone receptor, at 10e-9 M compound concentration
Settings: at 0.001 µM

molecule: CNc1ccc(C2C(C(=O)OC)=C(C)N=C(C)/C2=C(/O)OC)cc1[N+](=O)[O-] (configuration not stated)
inhibition: 4%

molecule: COC(=O)C1=C(C)N=C(C)/C(=C(\O)OC)C1c1cc2cc(-c3c(C)oc(C)c3C(=O)OC)ccc2nc1Cl (configuration not stated)
inhibition: 5%

molecule: COC(=O)C1=C(C)N=C(C)/C(=C(/O)OC)C1c1ccc2nc3n(c2c1)C(=O)c1ccccc1-3 (configuration not stated)
inhibition: 6%

molecule: COC(=O)C1=C(C)N=C(C)/C(=C(/O)OC)C1c1ccc2nc(-c3ccc(OC)cc3)n(Cc3ccc(OC)cc3)c2c1 (configuration not stated)
inhibition: 10%

molecule: COC(=O)C1=C(C)N=C(C)/C(=C(/O)OC)C1c1ccc(C=O)cc1 (configuration not stated)
inhibition: 0%

molecule: COC(=O)C1=C(C)N=C(C)/C(=C(\O)OC)C1c1ccc(C(=O)OC)cc1 (configuration not stated)
inhibition: 10%

molecule: COC(=O)C1=C(C)N=C(C)/C(=C(/O)OC)C1c1cc2ccccc2nc1Cl (configuration not stated)
inhibition: 6%

molecule: COC(=O)C1=C(C)N=C(C)/C(=C(/O)OC)C1c1ccc2nc(-c3ccc(O)c(OC)c3)n(Cc3ccc(O)c(OC)c3)c2c1 (configuration not stated)
inhibition: 3%

molecule: COC(=O)C1=C(C)N=C(C)/C(=C(/O)OC)C1c1ccc2nc(-c3ccc4c(c3)OCO4)n(Cc3ccc4c(c3)OCO4)c2c1 (configuration not stated)
inhibition: 0%

molecule: COC(=O)C1=C(C)N=C(C)/C(=C(\O)OC)C1c1cc(C(=O)c2ccc(C)cc2)c(OC)cc1OC (configuration not stated)
inhibition: 8%

molecule: COC(=O)C1=C(C)N=C(C)/C(=C(/O)OC)C1c1ccc2[nH]nnc2c1 (configuration not stated)
inhibition: 9%

molecule: COC(=O)C1=C(C)N=C(C)/C(=C(\O)OC)C1c1ccc(N)c([N+](=O)[O-])c1 (configuration not stated)
inhibition: 0%

molecule: COC(=O)C1=C(C)N=C(C)/C(=C(/O)OC)C1c1ccc(C2C(C(=O)OC)=C(C)N=C(C)/C2=C(/O)OC)cc1 (configuration not stated)
inhibition: 9%

molecule: COC(=O)C1=C(C)N=C(C)/C(=C(/O)OC)C1c1ccc2nc(-c3ccccc3)c(-c3ccccc3)nc2c1 (configuration not stated)
inhibition: 6%

molecule: COC(=O)C1=C(C)N=C(C)/C(=C(/O)OC)C1c1cc2ccccc2n2nnnc12 (configuration not stated)
inhibition: 0%

molecule: COC(=O)C1=C(C)N=C(C)/C(=C(/O)OC)C1c1ccc(N)c(N)c1 (configuration not stated)
inhibition: 0%

molecule: COC(=O)C1=C(C)N=C(C)/C(=C(/O)OC)C1c1ccc2nc(-c3ccc(OC)c(OC)c3)n(Cc3ccc(OC)c(OC)c3)c2c1 (configuration not stated)
inhibition: 2%
